Origin of the recorded values: patent US20260028389A1

system.under.test: T1, recombinant human KLK5 C-6His (Novoprotein, Catalog No. C415) (human, UniProt Q9Y337 23-293)
T1 construct: Bought protein; also called KLK5 protein (Novoprotein); not shown: C-terminal 6xHis tag ('C-6His')
method.summary: ELISA on captured KLK5 C-6His; binder incubated in human serum, day 4
pEC50: −log10 of the molar value.
property.measured: pEC50

[[record]]
binder = "Spink9-186.Fc (SEQ ID NO: 58) (Fc fusion, Mutant SPINK9 domain fused directly to a C-terminal IgG Fc) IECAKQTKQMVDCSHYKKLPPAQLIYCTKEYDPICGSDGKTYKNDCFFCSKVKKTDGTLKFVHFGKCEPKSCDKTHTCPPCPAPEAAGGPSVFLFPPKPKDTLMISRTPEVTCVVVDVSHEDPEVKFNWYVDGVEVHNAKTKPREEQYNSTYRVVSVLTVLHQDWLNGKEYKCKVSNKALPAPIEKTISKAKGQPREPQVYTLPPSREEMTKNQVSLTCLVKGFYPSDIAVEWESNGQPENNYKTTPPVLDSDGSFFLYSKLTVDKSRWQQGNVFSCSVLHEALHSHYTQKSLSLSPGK"
result = 9.68

[[record]]
binder = "Spink9-183.Fc (SEQ ID NO: 57) (Fc fusion, Mutant SPINK9 domain fused directly to a C-terminal IgG Fc) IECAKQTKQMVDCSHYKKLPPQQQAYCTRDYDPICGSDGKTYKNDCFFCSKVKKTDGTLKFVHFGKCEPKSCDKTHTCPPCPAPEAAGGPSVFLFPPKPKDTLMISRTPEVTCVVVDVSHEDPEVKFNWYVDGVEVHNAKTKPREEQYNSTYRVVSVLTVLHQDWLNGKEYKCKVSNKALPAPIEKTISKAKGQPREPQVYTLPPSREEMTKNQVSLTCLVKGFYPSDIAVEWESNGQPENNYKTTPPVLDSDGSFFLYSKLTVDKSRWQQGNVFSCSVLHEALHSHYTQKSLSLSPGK"
result = 9.92

[[record]]
binder = "Spink9-236.Fc (SEQ ID NO: 60) (Fc fusion, Mutant SPINK9 domain fused directly to a C-terminal IgG Fc) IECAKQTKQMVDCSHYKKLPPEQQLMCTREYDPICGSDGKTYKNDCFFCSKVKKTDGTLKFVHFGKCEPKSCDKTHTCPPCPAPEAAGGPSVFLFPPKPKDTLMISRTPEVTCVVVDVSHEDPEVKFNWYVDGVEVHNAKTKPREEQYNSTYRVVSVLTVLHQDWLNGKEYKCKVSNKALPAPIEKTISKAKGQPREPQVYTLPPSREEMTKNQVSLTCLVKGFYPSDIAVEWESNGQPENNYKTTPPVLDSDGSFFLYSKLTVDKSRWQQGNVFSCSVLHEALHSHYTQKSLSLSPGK"
result = 9.92

